Reported inhibition in vivo at 1 mg/kg values for the following compounds.
Test system: Male Sprague Dawley rats on high fat diet
Assay remarks: 11 day rat DIO model (body weight, food intake, hematology, blood chemistries)
Assay type: in vivo
Condition description: 264 h; DIO rat, 1.0 mpk sc, once a day for 11 days; read-out: DIO Rat 11-day weight loss vs vehicle
Where a name gives a salt, the structure may show the parent alone.
Provide a numeric answer, followed by its unit.

Look over these answered cases.
In [3]: df
Out[3]:
                                   compound                            assayed_system          experimental_endpoint  result_value
0  CO[C@@H]1[C@H](OC(=O)N2CC(CCN3CC(F)(F)C3)C2)CC[C@]2(CO2)[C@H]1[C@@]1(C)O[C@@H]1CC=C(C)C  Male Sprague Dawley rats on high fat diet  inhibition in vivo at 1 mg/kg          6.4%
1  CCN(CC)C[C@H]1CCCN1C(=O)O[C@@H]1CC[C@]2(CO2)[C@@H]([C@@]2(C)O[C@@H]2CC=C(C)C)[C@@H]1OC [Example 60, formate]  Male Sprague Dawley rats on high fat diet  inhibition in vivo at 1 mg/kg         7.79%
2  CCN(CC)CCC1CN(C(=O)O[C@@H]2CC[C@]3(CO3)[C@@H]([C@@]3(C)O[C@@H]3CC=C(C)C)[C@@H]2OC)C1  Male Sprague Dawley rats on high fat diet  inhibition in vivo at 1 mg/kg          4.7%
3  CO[C@@H]1[C@H](OC(=O)N2CC(CCN3CC(F)(F)C3)C2)CC[C@]2(CO2)[C@H]1[C@@]1(C)O[C@@H]1CCC(C)C  Male Sprague Dawley rats on high fat diet  inhibition in vivo at 1 mg/kg          9.1%
4  CO[C@@H]1[C@H](OC(=O)N2CC(OC(=O)N3CCOCC3)C2)CC[C@]2(CO2)[C@H]1[C@@]1(C)O[C@@H]1CC=C(C)C [Example 71, formate]  Male Sprague Dawley rats on high fat diet  inhibition in vivo at 1 mg/kg         10.3%
5  CNC(=O)OC1CN(C(=O)O[C@@H]2CC[C@]3(CO3)[C@@H]([C@@]3(C)O[C@@H]3CC=C(C)C)[C@@H]2OC)C1  Male Sprague Dawley rats on high fat diet  inhibition in vivo at 1 mg/kg            6%

Suppose we examine the compound CO[C@@H]1[C@H](OC(=O)N2CC(CCN3CCOCC3)C2)CC[C@]2(CO2)[C@H]1[C@@]1(C)O[C@@H]1CCC(C)C ; what inhibition in vivo at 1 mg/kg value has been reported?
10.7%

Suppose we examine the compound CO[C@@H]1[C@H](OC(=O)N2CC(CCN3CCOCC3)C2)CC[C@]2(CO2)[C@H]1[C@@]1(C)O[C@@H]1CC=C(C)C ; what inhibition in vivo at 1 mg/kg value has been reported?
7.7%

Suppose we examine the compound CCN(CC)CCCC1CN(C(=O)O[C@@H]2CC[C@]3(CO3)[C@@H]([C@@]3(C)O[C@@H]3CC=C(C)C)[C@@H]2OC)C1 ; what inhibition in vivo at 1 mg/kg value has been reported?
9.9%

Suppose we examine the compound CCNC[C@H]1CCN1C(=O)O[C@@H]1CC[C@]2(CO2)[C@@H]([C@@]2(C)O[C@@H]2CC=C(C)C)[C@@H]1OC [Example 123, formate] ; what inhibition in vivo at 1 mg/kg value has been reported?
5.4%
